# credit: the Human Domainome abundance scans (Beltran et al. 2025)

B1: Chromodomain-helicase-DNA-binding protein 3, residues 374 to 426; numbered along this chain, Q12873 (parent)
chain: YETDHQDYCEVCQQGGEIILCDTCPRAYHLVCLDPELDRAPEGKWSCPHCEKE

# Variants of: B1
# PROTOCOL_TEXT: abundance fitness (aPCA) (normalised: wild type 0, dead -1); higher = more abundant; growth selection in yeast, the domain comes from the species named
# MEASUREMENT_SETUP: Homo sapiens
Each entry gets false (0) if its abundance fitness stays under -0.1, and true (1) if its abundance fitness is -0.1 or above.

Decide: abundance fitness of D22M >= -0.1?
true (1)

One more variant: D38R
false (0)

Can you check C24S next?
false (0)

What would you report for E17R ?
false (0)

Param item: E2G
true (1)

Next entry: T23R
false (0)

Could you do the same for D7P , please?
true (1)

Ok, now D34A
false (0)

Also need G15Y , thanks.
true (1)

Request: E17Y
true (1)

Then this variant: T3F
true (1)

Field entry: G15A
true (1)
